Target: T1, human mature TGFβ3 (Homo sapiens, UniProt P10600)
T1 construct: Transforming Growth Factor-beta 3, human, mature form (cut from the precursor); also called TGFb3; source: bought: PeproTech
T1 sequence (P10600 301-412): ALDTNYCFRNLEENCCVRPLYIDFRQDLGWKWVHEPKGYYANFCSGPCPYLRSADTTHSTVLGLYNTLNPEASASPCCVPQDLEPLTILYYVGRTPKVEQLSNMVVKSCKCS
Experiment: SPR; Biacore T200; antibody captured on a Protein A sensor chip (about 90 RU); mature TGFβ isoform injected, five-fold dilutions 0.008 nM to 5 nM; HBS-EP pH 7.4, 150 mM NaCl; 37 °C; 100 μl/min; 3 min association, 60 min dissociation; one-to-one Langmuir model, global fit
Conditions: both partners purified
Please provide measured pKd for the entries that follow.
Lab note — pKd values are minus log10 of concentrations in M.

QUERY: Could you share which pKd value was measured for humanized 4A11 variant 2 (antibody, V domains shown, rbt4A11 CDRs (Kabat and Chothia) and rabbit Vernier residues (VH positions 2, 24, 37, 48, 49, 67, 71, 78, 91, 105) grafted on human germline IGHV3-48*01; has R19, Y79, Q81 (Kabat numbering); rbt4A11 CDRs and rabbit Vernier residues (VL positions 2, 4, 36, 43, 58) grafted on human germline IGKV1D-39*01; human IgG1; also called h4A11.v2; v2; source: Expi293F, transient, purified (Protein A, SEC)) VH: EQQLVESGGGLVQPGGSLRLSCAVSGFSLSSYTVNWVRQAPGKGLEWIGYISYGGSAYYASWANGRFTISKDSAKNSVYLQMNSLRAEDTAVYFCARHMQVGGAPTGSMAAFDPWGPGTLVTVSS VL: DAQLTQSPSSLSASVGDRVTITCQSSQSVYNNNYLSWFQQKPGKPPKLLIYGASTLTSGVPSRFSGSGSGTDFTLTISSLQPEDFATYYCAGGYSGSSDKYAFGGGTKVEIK ?
RESULT: 10.88

QUERY: Find the recorded pKd belonging to humanized 4A11 variant 6 (antibody, V domains shown, as the VH of m7 (h4A11.v2): rbt4A11 CDRs and rabbit Vernier residues grafted on human germline IGHV3-48*01; rbt4A11 CDRs and rabbit Vernier residues (VL positions 2, 4, 36, 43, 58) grafted on human germline IGKV2-24*01; human IgG1; also called h4A11.v6; v6; source: Expi293F, transient, purified (Protein A, SEC)) VH: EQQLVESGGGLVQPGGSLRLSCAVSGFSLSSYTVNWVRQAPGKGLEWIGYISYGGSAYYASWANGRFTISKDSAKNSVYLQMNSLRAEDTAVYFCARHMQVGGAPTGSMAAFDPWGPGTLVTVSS VL: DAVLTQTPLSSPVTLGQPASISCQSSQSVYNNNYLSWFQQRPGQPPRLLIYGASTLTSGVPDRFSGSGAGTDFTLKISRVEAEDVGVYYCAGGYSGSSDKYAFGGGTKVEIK and report it.
RESULT: 10.90

QUERY: Fill blank: measured pKd of the binder rabbit monoclonal antibody 4A11 (antibody, V domains shown, VH of rbt4A11; VL of rbt4A11; Parental rabbit antibody; also called rbt4A11) VH: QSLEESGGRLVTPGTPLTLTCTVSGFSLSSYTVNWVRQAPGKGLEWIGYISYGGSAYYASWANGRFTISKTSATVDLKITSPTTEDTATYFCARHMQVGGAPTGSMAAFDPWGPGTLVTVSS VL: AAVLTQTPSPVSAAVGGTVSISCQSSQSVYNNNYLSWFQQKPGQPPKLLIYGASTLTSGVPSRFKGSGSGTQFTLTISDVQCDDAATYYCAGGYSGSSDKYAFGGGTEVVVK is ____.
RESULT: 11.92

QUERY: Reported pKd for humanized 4A11 variant 7 (antibody, V domains shown, rbt4A11 CDRs (Kabat and Chothia) and rabbit Vernier residues (VH positions 2, 24, 37, 48, 49, 67, 71, 78, 91, 105) grafted on human germline IGHV4-59*06; has S19, S79, K81 (Kabat numbering); rbt4A11 CDRs and rabbit Vernier residues (VL positions 2, 4, 36, 43, 58) grafted on human germline IGKV3-20*01; human IgG1; also called h4A11.v7; v7; source: Expi293F, transient, purified (Protein A, SEC)) VH: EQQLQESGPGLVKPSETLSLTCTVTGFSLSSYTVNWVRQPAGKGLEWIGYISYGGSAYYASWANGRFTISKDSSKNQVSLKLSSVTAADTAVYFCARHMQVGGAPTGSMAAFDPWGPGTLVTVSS VL: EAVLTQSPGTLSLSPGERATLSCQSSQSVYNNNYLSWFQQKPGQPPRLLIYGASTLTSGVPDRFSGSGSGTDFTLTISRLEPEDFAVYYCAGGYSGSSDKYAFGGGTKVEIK : what is it?
RESULT: 11.01
